# study-target: Erythropoietin receptor (Homo sapiens) (UniProt P19235)
# Sequence (P19235 whole entry): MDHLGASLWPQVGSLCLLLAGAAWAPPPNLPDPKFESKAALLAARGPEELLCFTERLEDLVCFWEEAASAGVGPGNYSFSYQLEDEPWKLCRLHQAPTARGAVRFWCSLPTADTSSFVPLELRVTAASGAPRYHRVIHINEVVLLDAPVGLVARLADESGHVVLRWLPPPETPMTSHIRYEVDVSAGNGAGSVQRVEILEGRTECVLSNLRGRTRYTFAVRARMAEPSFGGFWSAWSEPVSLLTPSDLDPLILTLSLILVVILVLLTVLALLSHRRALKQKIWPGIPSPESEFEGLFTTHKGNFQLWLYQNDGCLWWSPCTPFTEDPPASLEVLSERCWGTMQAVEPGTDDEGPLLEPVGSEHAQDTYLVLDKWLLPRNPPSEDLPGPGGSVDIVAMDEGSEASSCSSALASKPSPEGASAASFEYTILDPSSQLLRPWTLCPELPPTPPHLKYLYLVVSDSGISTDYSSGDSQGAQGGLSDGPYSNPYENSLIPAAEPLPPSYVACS
# assay-comment: Compound was evaluated for inhibition of [125I]EPO binding to Erythropoietin receptor (EBP) at a concentration of 50 uM
Please provide measured inhibition for the entries that follow.
Give the number; % is assumed, so skip it.

stdin: Entry COC(=O)[C@H](CCC(=O)OC(C)(C)C)N(C/C=C/c1cccc(Oc2ccccc2)c1)C/C=C/c1cccc(Oc2ccccc2)c1 : reported inhibition = ?
stdout: 0

stdin: Now give it for O=C(O)CN(C/C=C/c1cccc(Oc2ccccc2)c1)C/C=C/c1cccc(Oc2ccccc2)c1 too.
stdout: 45

stdin: Now give it for COC(=O)[C@H](CCCCN)N(Cc1ccc(OCc2ccccc2)cc1)Cc1cccc([N+](=O)[O-])c1 too.
stdout: 37

stdin: Now give it for COC(=O)[C@H](CCCCNC(=O)OC(C)(C)C)N(C/C=C/c1cccc(Oc2ccccc2)c1)C/C=C/c1cccc(Oc2ccccc2)c1 too.
stdout: 0

stdin: Now give it for O=C(O)C[C@H](C(=O)NCCCOCCCCOCCCNC(=O)[C@H](CC(=O)O)N(Cc1ccc(OCc2ccccc2)cc1)Cc1ccc(OCc2ccccc2)cc1)N(Cc1ccc(OCc2ccccc2)cc1)Cc1ccc(OCc2ccccc2)cc1 too.
stdout: 75

stdin: Now give it for NCCCC[C@H](C(=O)NCCOCCOCCNC(=O)[C@H](CCCCN)N(Cc1ccc(OCc2ccccc2)cc1)Cc1ccc(OCc2ccccc2)cc1)N(Cc1ccc(OCc2ccccc2)cc1)Cc1ccc(OCc2ccccc2)cc1 too.
stdout: 51

stdin: Now give it for COC(=O)[C@H](CCCCNC(=O)OC(C)(C)C)N(C/C=C/c1cccc(Oc2ccc(C(C)(C)C)cc2)c1)C/C=C/c1cccc(Oc2ccc(C(C)(C)C)cc2)c1 too.
stdout: 0

This collection of values is drawn from ChEMBL document CHEMBL1133297.
